- study target: Rat Liver DHFR (Rattus norvegicus, UniProt Q920D2)
- Construct: from tissue; host or cells: rat liver
- Sequence (Q920D2 1-187): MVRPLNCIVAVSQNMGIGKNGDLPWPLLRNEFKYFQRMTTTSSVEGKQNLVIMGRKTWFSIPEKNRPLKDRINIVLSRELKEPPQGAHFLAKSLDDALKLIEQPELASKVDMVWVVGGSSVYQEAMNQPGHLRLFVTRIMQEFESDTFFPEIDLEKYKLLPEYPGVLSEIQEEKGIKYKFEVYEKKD
- method summary: Inhibition of rat liver DHFR enzyme activity
- Type: biochemical
- experimental conditions: P95 limits in brackets, read-out: IC₅₀(µM) Rat Liver DHFR (P95 limits)
Items are presented alongside their recorded IC50.
metric name: IC50

                                entry_smiles  metric_name  observed_value
 0  Nc1nc(N)c(-c2cc(Cl)cc(Cl)c2)c(C(F)(F)F)n1         IC50         4.59 µM
 1  C[N+]1([O-])CCN(c2nc(N)c(-c3cc(Cl)cc(Cl)c3Cl)c(C(F)(F)F)n2)CC1         IC50        > 100 µM
 2  Cc1nc(N)nc(N)c1-c1cc(Cl)cc(Cl)c1[N+](=O)[O-]         IC50         5.56 µM
 3     Nc1ncc(-c2cc(Cl)c(Cl)c(Cl)c2Cl)c(N)n1         IC50        > 100 µM
 4  Nc1nc(N2CCN(C3CC3)CC2)ncc1-c1cc(Cl)cc(Cl)c1Cl         IC50        > 100 µM
 5  C[N+]1([O-])CCN(c2ncc(-c3cc(Cl)cc(Cl)c3Cl)c(N)n2)CC1         IC50        > 100 µM
 6  Cc1nc(N2CCN(C)CC2)nc(N)c1-c1cc(Cl)c(Cl)c(Cl)c1         IC50          100 µM
 7  CCCN1CCN(c2ncc(-c3cc(Cl)cc(Cl)c3Cl)c(N)n2)CC1         IC50        > 100 µM
 8     CN1CCN(c2nc(N)ncc2-c2cccc(Cl)c2Cl)CC1         IC50        > 100 µM
 9  CN(C)S(=O)(=O)c1c(Cl)cc(-c2cnc(N)nc2N)c(Cl)c1Cl         IC50         13.8 µM
10      Nc1ncc(-c2cc(Cl)c(N)c(Cl)c2Cl)c(N)n1         IC50        > 100 µM
11    CC(C)Nc1ncc(-c2cc(Cl)cc(Cl)c2Cl)c(N)n1         IC50        > 100 µM
12        Cc1nc(N)nc(N)c1-c1c(Cl)ccc(Cl)c1Cl         IC50        > 100 µM
13  COCc1nc(N2CCN(C)CC2)nc(N)c1-c1cc(Cl)cc(Cl)c1         IC50        > 100 µM
14  CCN1CCN(c2nc(N)c(-c3cc(Cl)cc(Cl)c3)c(C(F)(F)F)n2)CC1         IC50        > 100 µM
15   CCN(CC)c1ncc(-c2cc(Cl)cc(Cl)c2Cl)c(N)n1         IC50        > 100 µM
16  Nc1nc(N)c(-c2cc(Cl)c(N)c(Cl)c2)c(C(F)(F)F)n1         IC50         1.54 µM
17  CN1CCN(c2nc(N)c(-c3cc(Cl)cc(Cl)c3)c(C(F)(F)F)n2)CC1         IC50        > 100 µM
18  CN1CCN(c2ncc(-c3cc(Cl)cc(Cl)c3)c(N)n2)CC1         IC50        > 100 µM
19      Cc1nc(N)nc(N)c1-c1cc(Cl)c(Cl)c(Cl)c1         IC50        < 100 µM
20      Nc1ncc(-c2cccc(Cl)c2Cl)c(N2CCOCC2)n1         IC50        > 100 µM
21  CCN1CCN(c2ncc(-c3cc(Cl)cc(Cl)c3Cl)c(N)n2)CC1         IC50        > 100 µM
22      Nc1ncc(-c2cc(Cl)c(I)c(Cl)c2Cl)c(N)n1         IC50        > 100 µM
23       Cc1nc(N)nc(N)c1-c1cc(Cl)c(N)c(Cl)c1         IC50        0.034 µM
24  C[C@@H]1CN(c2ncc(-c3cc(Cl)cc(Cl)c3Cl)c(N)n2)C[C@H](C)N1         IC50        > 100 µM
25        Nc1ncc(-c2cc(Cl)c(N)c(Cl)c2)c(N)n1         IC50        0.034 µM
26  Nc1nc(N2CCN(Cc3ccccc3)CC2)ncc1-c1cc(Cl)cc(Cl)c1Cl         IC50        < 100 µM
27  CCCCN1CCN(c2ncc(-c3cc(Cl)cc(Cl)c3Cl)c(N)n2)CC1         IC50        > 100 µM
28  CC(C)N1CCN(c2ncc(-c3cc(Cl)cc(Cl)c3Cl)c(N)n2)CC1         IC50          100 µM

---

Reported values of IC50 for individual entries
- System: veratrine-evoked release of glutamate
- method summary: Inhibition of veratrine-evoked release of glutamate from rat brain slices
- Assay type: cell-based
- experimental conditions: P95 limits in brackets, read-out: IC₅₀(µM) Glutamate Release (P95 limits)
metric name: IC50

In [3]: df
Out[3]:
                                    compound  observed_value
 0  Nc1nc(N2CCN(Cc3ccccc3)CC2)ncc1-c1cc(Cl)cc(Cl)c1Cl [Compound 22]         > 10 µM
 1  CCN1CCN(c2nc(N)c(-c3cc(Cl)cc(Cl)c3)c(C(F)(F)F)n2)CC1 [Compound 32]         2.43 µM
 2  COCc1nc(N2CCN(C)CC2)nc(N)c1-c1cc(Cl)cc(Cl)c1 [Compound 11]         < 10 µM
 3  Cc1nc(N)nc(N)c1-c1cc(Cl)c(N)c(Cl)c1 [Compound 26]         < 10 µM
 4  Cc1nc(N)nc(N)c1-c1cc(Cl)cc(Cl)c1[N+](=O)[O-] [Compound 19]         < 10 µM
 5  CCN1CCN(c2ncc(-c3cc(Cl)cc(Cl)c3Cl)c(N)n2)CC1 [Compound 29]         2.56 µM
 6  CN(C)S(=O)(=O)c1c(Cl)cc(-c2cnc(N)nc2N)c(Cl)c1Cl [Compound 12]         < 10 µM
 7  C[N+]1([O-])CCN(c2nc(N)c(-c3cc(Cl)cc(Cl)c3Cl)c(C(F)(F)F)n2)CC1 [Compound 10]         > 10 µM
 8  CC(C)N1CCN(c2ncc(-c3cc(Cl)cc(Cl)c3Cl)c(N)n2)CC1 [Compound 30]         < 10 µM
 9  CCN(CC)c1ncc(-c2cc(Cl)cc(Cl)c2Cl)c(N)n1 [Compound 6]           10 µM
10  Nc1nc(N2CCN(C3CC3)CC2)ncc1-c1cc(Cl)cc(Cl)c1Cl [Compound 31]           10 µM
11  CN1CCN(c2nc(N)c(-c3cc(Cl)cc(Cl)c3)c(C(F)(F)F)n2)CC1 [Compound 14]        0.137 µM
12  CCCCN1CCN(c2ncc(-c3cc(Cl)cc(Cl)c3Cl)c(N)n2)CC1 [Compound 28]         < 10 µM
13  CC(C)Nc1ncc(-c2cc(Cl)cc(Cl)c2Cl)c(N)n1 [Compound 7]         < 10 µM
14  Nc1ncc(-c2cccc(Cl)c2Cl)c(N2CCOCC2)n1 [Compound 21]           10 µM
15  Nc1nc(N)c(-c2cc(Cl)cc(Cl)c2)c(C(F)(F)F)n1 [Compound 1]         < 10 µM
16  C[C@@H]1CN(c2ncc(-c3cc(Cl)cc(Cl)c3Cl)c(N)n2)C[C@H](C)N1 [Compound 16]           10 µM
17  Nc1ncc(-c2cc(Cl)c(I)c(Cl)c2Cl)c(N)n1 [Compound 9]         < 10 µM

---

The following molecules are listed with their measured IC50 values.
- Tested on: veratrine-evoked release of glutamate
- method summary: Inhibition of veratrine-evoked release of glutamate from rat brain slices
- Format: cell-based
- experimental conditions: P95 limits in brackets, read-out: IC₅₀(µM) Glutamate Release (P95 limits)
metric name: IC50 (µM)

>>> print(df.to_string())
                                entry_smiles                           study_target  lt_gt_eq  observed_value
 0  C[N+]1([O-])CCN(c2ncc(-c3cc(Cl)cc(Cl)c3Cl)c(N)n2)CC1  veratrine-evoked release of glutamate         >              10
 1        Nc1ncc(-c2cc(Cl)c(N)c(Cl)c2)c(N)n1  veratrine-evoked release of glutamate         >              10
 2  Nc1nc(N)c(-c2cc(Cl)c(N)c(Cl)c2)c(C(F)(F)F)n1  veratrine-evoked release of glutamate         =              10
 3      Cc1nc(N)nc(N)c1-c1cc(Cl)c(Cl)c(Cl)c1  veratrine-evoked release of glutamate         <              10
 4  CCCN1CCN(c2ncc(-c3cc(Cl)cc(Cl)c3Cl)c(N)n2)CC1  veratrine-evoked release of glutamate         =            2.17
 5  Cc1nc(N2CCN(C)CC2)nc(N)c1-c1cc(Cl)c(Cl)c(Cl)c1  veratrine-evoked release of glutamate         <              10
 6      Nc1ncc(-c2cc(Cl)c(N)c(Cl)c2Cl)c(N)n1  veratrine-evoked release of glutamate         =             2.5
 7     CN1CCN(c2nc(N)ncc2-c2cccc(Cl)c2Cl)CC1  veratrine-evoked release of glutamate         =              10
 8        Cc1nc(N)nc(N)c1-c1c(Cl)ccc(Cl)c1Cl  veratrine-evoked release of glutamate         <              10
 9     Nc1ncc(-c2cc(Cl)c(Cl)c(Cl)c2Cl)c(N)n1  veratrine-evoked release of glutamate         <              10
10  CN1CCN(c2ncc(-c3cc(Cl)cc(Cl)c3)c(N)n2)CC1  veratrine-evoked release of glutamate         =            0.27
